Where do these numbers come from? They come from patent US7118895B2.

Test system: Crude diglycosidase
assayInfo: Examination of pH in the conversion into isoflavone aglycons by diglycosidase using soybean materials
Format: biochemical, Penicillium multicolor IAM7153
Design: concentration or dose not given beside the values
conditionLabel: pH5.4; heat treatment of enzyme: no; reaction time 6 h
Experimental: A substrate solution of 450 μL was prepared by suspending 50 mg of each soybean material (roasted soy flour (manufactured by Fuji Shokuryo K.K.), soymilk (manufactured by Gitoh Shokuhin K.K.), defatted soybean (manufactured by Fuji Seiyu K.K.), concentrated soybean protein (manufactured by Fuji Seiyu K.K.)), and adjusting the pH to 2 to 11 with hydrochloric acid or sodium hydroxide. […]
Parameter Decomposition efficiency of daidzin family in defatted soybean: see the listing below.
valueKind: Decomposition efficiency of daidzin family in defatted soybean (%)

{"molecule": "O=c1c(-c2ccc(O)cc2)coc2cc(O)ccc12 [daidzein]", "resultValue": 63.1}
{"molecule": "O=C(O)CC(=O)OC[C@H]1O[C@@H](Oc2ccc3c(=O)c(-c4ccc(O)cc4)coc3c2)[C@H](O)[C@@H](O)[C@@H]1O [malonyldaidzin, 6″-O-malonyldaidzin]", "resultValue": 36.9}

* * *

System: Crude diglycosidase
assayInfo: Examination of pH in the conversion into isoflavone aglycons by diglycosidase using soybean materials
Format: biochemical, Penicillium multicolor IAM7153
conditionLabel: pH8.6; heat treatment of enzyme: no; reaction time 6 h
Parameter Decomposition efficiency of daidzin family in concentrated soybean protein: see the listing below.
valueKind: Decomposition efficiency of daidzin family in concentrated soybean protein (%)

{"compound": "CC(=O)OC[C@H]1O[C@@H](Oc2ccc3c(=O)c(-c4ccc(O)cc4)coc3c2)[C@H](O)[C@@H](O)[C@@H]1O [acetyldaidzin, 6″-O-acetyldaidzin]", "unitAbbrev": "%", "resultValue": 38.1}
{"compound": "O=c1c(-c2ccc(O)cc2)coc2cc(O)ccc12 [daidzein]", "unitAbbrev": "%", "resultValue": 27.4}
{"compound": "O=c1c(-c2ccc(O)cc2)coc2cc(O[C@@H]3O[C@H](CO)[C@@H](O)[C@H](O)[C@H]3O)ccc12 [daidzin]", "unitAbbrev": "%", "resultValue": 34.5}

* * *

System: Crude diglycosidase
assayInfo: Examination of substrate concentration in the conversion into isoflavone aglycons by diglycosidase using soybean materials;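 also: percent of the isoflavone family total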
Assay type: biochemical, Penicillium multicolor IAM7153
conditionLabel: roasted soy flour, substrate concentration 10%, heat treatment of enzyme no, reaction time 1 h
valueKind: Decomposition efficiency: ratio of each glycoside/aglycon within its isoflavone family (%)

{"sampleSmiles": "COc1cc2c(=O)c(-c3ccc(O)cc3)coc2cc1O", "targetEntity": "Crude diglycosidase", "resultValue": 83.3}
{"sampleSmiles": "CC(=O)OC[C@H]1O[C@@H](Oc2cc(O)c3c(=O)c(-c4ccc(O)cc4)coc3c2)[C@H](O)[C@@H](O)[C@@H]1O", "targetEntity": "Crude diglycosidase", "resultValue": 33.3}

* * *

Tested on: Crude diglycosidase
assayInfo: Examination of pH in the conversion into isoflavone aglycons by diglycosidase using soybean materials
Assay type: biochemical, Penicillium multicolor IAM7153
conditionLabel: pH3.4; heat treatment of enzyme: no; reaction time 6 h
valueKind: Decomposition efficiency of glycitin family in defatted soybean

{"compound": "COc1cc2c(=O)c(-c3ccc(O)cc3)coc2cc1O[C@@H]1O[C@H](COC(=O)CC(=O)O)[C@@H](O)[C@H](O)[C@H]1O [malonylglycitin, 6″-O-malonylglycitin]", "targetEntity": "Crude diglycosidase", "resultValue": "100.0%"}
{"compound": "COc1cc2c(=O)c(-c3ccc(O)cc3)coc2cc1O [glycitein]", "targetEntity": "Crude diglycosidase", "resultValue": "not detected"}
{"compound": "COc1cc2c(=O)c(-c3ccc(O)cc3)coc2cc1O[C@@H]1O[C@H](COC(C)=O)[C@@H](O)[C@H](O)[C@H]1O [acetylglycitin, 6″-O-acetylglycitin]", "targetEntity": "Crude diglycosidase", "resultValue": "not detected"}
{"compound": "COc1cc2c(=O)c(-c3ccc(O)cc3)coc2cc1O[C@@H]1O[C@H](CO)[C@@H](O)[C@H](O)[C@H]1O [glycitin]", "targetEntity": "Crude diglycosidase", "resultValue": "not detected"}

* * *

System: Crude diglycosidase
assayInfo: Examination of temperature in the conversion into isoflavone aglycons by diglycosidase using soybean materials
Assay type: biochemical, Penicillium multicolor IAM7153
Design: concentration or dose not given beside the values
conditionLabel: 35 °C; heat treatment of enzyme: no; 6 h
valueKind: Decomposition efficiency of daidzin family in roasted soy flour

{"sampleSmiles": "O=c1c(-c2ccc(O)cc2)coc2cc(O)ccc12", "resultValue": "60.4%"}
{"sampleSmiles": "O=C(O)CC(=O)OC[C@H]1O[C@@H](Oc2ccc3c(=O)c(-c4ccc(O)cc4)coc3c2)[C@H](O)[C@@H](O)[C@@H]1O", "resultValue": "not detected"}
{"sampleSmiles": "CC(=O)OC[C@H]1O[C@@H](Oc2ccc3c(=O)c(-c4ccc(O)cc4)coc3c2)[C@H](O)[C@@H](O)[C@@H]1O", "resultValue": "39.6%"}
{"sampleSmiles": "O=c1c(-c2ccc(O)cc2)coc2cc(O[C@@H]3O[C@H](CO)[C@@H](O)[C@H](O)[C@H]3O)ccc12", "resultValue": "not detected"}

* * *

Tested on: Crude diglycosidase
assayInfo: Examination of substrate concentration in the conversion into isoflavone aglycons by diglycosidase using soybean materials;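 also: percent of the isoflavone family total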
Type: biochemical, Penicillium multicolor IAM7153
conditionLabel: concentrated soybean protein, substrate concentration 30%, heat treatment of enzyme no, reaction time 3 h
Kind request: treat 30% as inclusive, so Decomposition efficiency: ratio of each glycoside/aglycon within its isoflavone family at 30% or higher is class 1, anything lower is class 0.

{"molecule": "COc1cc2c(=O)c(-c3ccc(O)cc3)coc2cc1O [glycitein]", "assignedLabel": "class 1"}
{"molecule": "CC(=O)OC[C@H]1O[C@@H](Oc2cc(O)c3c(=O)c(-c4ccc(O)cc4)coc3c2)[C@H](O)[C@@H](O)[C@@H]1O [acetylgenistin, 6″-O-acetylgenistin]", "assignedLabel": "class 1"}
{"molecule": "CC(=O)OC[C@H]1O[C@@H](Oc2ccc3c(=O)c(-c4ccc(O)cc4)coc3c2)[C@H](O)[C@@H](O)[C@@H]1O [acetly-daidzin]", "assignedLabel": "class 1"}
{"molecule": "COc1cc2c(=O)c(-c3ccc(O)cc3)coc2cc1O[C@@H]1O[C@H](COC(=O)CC(=O)O)[C@@H](O)[C@H](O)[C@H]1O [malonylglycitin, 6″-O-malonylglycitin]", "assignedLabel": "class 0"}

* * *

Parameter glucoside: see the listing below.
Test system: β-Glucosidase derived from almond
assayInfo: Reactivity toward various isoflavone glycosides (HPLC)
Format: biochemical
Design: unit not given here
conditionLabel: Reaction time 0 h; 55 °C, pH 4.0

{"sampleSmiles": "COc1cc2c(=O)c(-c3ccc(O)cc3)coc2cc1O[C@@H]1O[C@H](COC(C)=O)[C@@H](O)[C@H](O)[C@H]1O", "glucoside": 100}
{"sampleSmiles": "CC(=O)OC[C@H]1O[C@@H](Oc2ccc3c(=O)c(-c4ccc(O)cc4)coc3c2)[C@H](O)[C@@H](O)[C@@H]1O", "glucoside": 99.8}
{"sampleSmiles": "O=c1c(-c2ccc(O)cc2)coc2cc(O[C@@H]3O[C@H](CO)[C@@H](O)[C@H](O)[C@H]3O)cc(O)c12", "glucoside": 100}
{"sampleSmiles": "O=C(O)CC(=O)OC[C@H]1O[C@@H](Oc2ccc3c(=O)c(-c4ccc(O)cc4)coc3c2)[C@H](O)[C@@H](O)[C@@H]1O", "glucoside": 100}
{"sampleSmiles": "O=c1c(-c2ccc(O)cc2)coc2cc(O[C@@H]3O[C@H](CO)[C@@H](O)[C@H](O)[C@H]3O)ccc12", "glucoside": 99.1}
{"sampleSmiles": "COc1cc2c(=O)c(-c3ccc(O)cc3)coc2cc1O[C@@H]1O[C@H](CO)[C@@H](O)[C@H](O)[C@H]1O", "glucoside": 100}
{"sampleSmiles": "COc1cc2c(=O)c(-c3ccc(O)cc3)coc2cc1O[C@@H]1O[C@H](COC(=O)CC(=O)O)[C@@H](O)[C@H](O)[C@H]1O", "glucoside": 100}
{"sampleSmiles": "CC(=O)OC[C@H]1O[C@@H](Oc2cc(O)c3c(=O)c(-c4ccc(O)cc4)coc3c2)[C@H](O)[C@@H](O)[C@@H]1O", "glucoside": 100}
{"sampleSmiles": "O=C(O)CC(=O)OC[C@H]1O[C@@H](Oc2cc(O)c3c(=O)c(-c4ccc(O)cc4)coc3c2)[C@H](O)[C@@H](O)[C@@H]1O", "glucoside": 100}

* * *

Test system: Crude diglycosidase
assayInfo: Examination of temperature in the conversion into isoflavone aglycons by diglycosidase using soybean materials
Type: biochemical, Penicillium multicolor IAM7153
Design: concentration or dose not given beside the values
conditionLabel: 65° C., heat treatment of enzyme no, reaction time 0 h
Parameter Decomposition efficiency of daidzin family in defatted soybean: see the listing below.
valueKind: Decomposition efficiency of daidzin family in defatted soybean (%)

{"compound": "O=c1c(-c2ccc(O)cc2)coc2cc(O)ccc12 [daidzein]", "unitAbbrev": "%", "resultValue": 16.2}
{"compound": "O=C(O)CC(=O)OC[C@H]1O[C@@H](Oc2ccc3c(=O)c(-c4ccc(O)cc4)coc3c2)[C@H](O)[C@@H](O)[C@@H]1O [malonyldaidzin, 6″-O-malonyldaidzin]", "unitAbbrev": "%", "resultValue": 43.3}
{"compound": "O=c1c(-c2ccc(O)cc2)coc2cc(O[C@@H]3O[C@H](CO)[C@@H](O)[C@H](O)[C@H]3O)ccc12 [daidzin]", "unitAbbrev": "%", "resultValue": 40.5}
